All values here come from PubChem BioAssay (NCATS).

- System: CP247
- ASSAY_PROTOCOL: qHTS profiling for inhibitors of Plasmodium falciparum proliferation (AID 504749); also: nearly all actives have a fitted effect of over 60% in size
- TEST_PARAMETERS: P. falciparum in erythrocytes, SYBR Green DNA, 72 h; series mostly up to 28.7 µM
Records with an inconclusive call do not appear. Activity calls are given as the source filed them. Calls follow the shape of the dose curve; as a rule, active = well fitted inhibition curve with a large enough effect; inconclusive = small, poorly fitted or top-dose-only effect; inactive = flat fitted curve, though single readings scatter.
The reply should be one of these categories: active, inactive

The following compounds have reported results that may help.
* COc1nc(C)nc(Cl)c1NC1=NCCN1 | inactive
* NCCc1cnc[nH]1 | inactive
* Cc1cn([C@H]2C[C@H](N=[N+]=[N-])[C@@H](CO)O2)c(=O)[nH]c1=O | inactive
* CN(C)CCC=C1c2ccccc2C=Cc2ccccc21 | inactive
* OCCN1CCN(CCCN2c3ccccc3Sc3ccc(C(F)(F)F)cc32)CC1 | active
* NC(=O)NO | inactive
* O=c1c(-c2ccc(O)cc2)coc2cc(O)cc(O)c12 | inactive
* CCOC(=O)C(C)(C)Oc1ccc(Cl)cc1 | inactive
* CC#C[C@]1(O)CC[C@H]2[C@@H]3CCC4=CC(=O)CCC4=C3[C@@H](c3ccc(N(C)C)cc3)C[C@@]21C | active
* Cc1cc(C(C)(C)C)cc(C)c1CC1=NCCN1 | inactive

In: Recorded test call requested for Cn1c(=O)c2[nH]cnc2n(C)c1=O
Out: inactive

====

- Test system: Zika virus NS2B-NS3 protease (linked construct)
- ASSAY_PROTOCOL: Confirmatory screen NINDS AMC qHTS for Zika virus inhibitors (AID 1347152); also: nearly all actives have a fitted effect of over 70% in size; also: potency is read from the fitted curve at half-maximal effect
- TEST_PARAMETERS: Purified linked NS2B-NS3, AMC substrate fluorescence; series mostly up to 56.6 µM
Records with an inconclusive call do not appear. Calls of active or inactive are those of the source. The call rests on the fitted dose curve; in most records, active means well fitted inhibition curve with a large enough effect; inconclusive means small, poorly fitted or top-dose-only effect; inactive means flat fitted curve, though single readings scatter.
VALUE_TYPE: Potency

Answered examples (5):
• O=C(c1ccc(F)cc1)C1CCN(CCn2c(=O)[nH]c3ccccc3c2=O)CC1 = inactive
• Cc1cnc(C(=O)NCCc2ccc(S(=O)(=O)NC(=O)NC3CCCCC3)cc2)cn1 = inactive
• CC(C)(C)C(=O)Oc1ccc(S(=O)(=O)Nc2ccccc2C(=O)NCC(=O)O)cc1 = inactive
• O=C1Cc2cc(CCN3CCN(c4nsc5ccccc45)CC3)c(Cl)cc2N1 = 34.1 µM (active)
• CCOC(=O)Nc1ccc(NCc2ccc(F)cc2)nc1N = inactive

Please examine the following record next.
In: Given Cn1ccc2cc3c(cc21)CCN3C(=O)Nc1cccnc1 , state its recorded Potency.
Out: 24.1 µM (active)

====

- SUBJECT_OF_TEST: Chromobox protein homolog 1 (Homo sapiens)
- ASSAY_PROTOCOL: qHTS Validation Assay for Inhibitors of HP1-beta Chromodomain Interactions with Methylated Histone Tails (AID 488953); also: nearly all actives have a fitted effect of over 50% in size
- TEST_PARAMETERS: HP1-beta chromodomain / methylated histone peptide binding assay; series mostly up to 114 µM
Inconclusive results are not listed. Calls of active or inactive are those of the source. The call rests on the fitted dose curve; in most records, active means well fitted inhibition curve with a large enough effect; inconclusive means small, poorly fitted or top-dose-only effect; inactive means no such curve, though single readings can be large or run the other way.
Outcome field: choose from active, inactive

* NCCS(=O)(=O)O | inactive
* C[C@](N)(Cc1ccc(O)c(O)c1)C(=O)O | active
* Cn1ccc2cc3c(cc21)CCN3C(=O)Nc1cccnc1 | active
* O=C(c1ccc(OCCN2CCCCC2)cc1)c1c(-c2ccc(O)cc2)sc2cc(O)ccc12 | active
* Cn1c(=O)c2c(ncn2C)n(C)c1=O | inactive

In: For COc1nc(C)nc(Cl)c1NC1=NCCN1 , what call appears in the results of this test?
Out: inactive

In: Can you check O=C(c1ccc(F)cc1)C1CCN(CCn2c(=O)[nH]c3ccccc3c2=O)CC1 next?
Out: inactive

In: Another: CCCNCC(O)COc1ccccc1C(=O)CCc1ccccc1 (centres undefined)
Out: inactive

In: Follow-up entry: COc1ccc2[nH]cc(CCNC(C)=O)c2c1
Out: inactive

====

- ASSAY_PROTOCOL: Natriuretic polypeptide receptor (hNpr1) antagonism - Pilot counterscreen GloSensor control cell line (AID 1347045); also: potency is read from the fitted curve at half-maximal effect
- TEST_PARAMETERS: HEK293 cGMP GloSensor cells, SNP-stimulated luminescence, 20 min; series mostly up to 38.3 µM
Records with an inconclusive call do not appear. Activity calls are given as the source filed them. The call rests on the fitted dose curve.
VALUE_TYPE: Potency

Worked examples, 5 compounds total:
- CCN1CCCC1CNC(=O)c1cc(S(=O)(=O)CC)c(N)cc1OC (stereo unspecified): inactive
- N[C@@H](Cc1c[nH]c2ccc(O)cc12)C(=O)O: inactive
- CCC1(c2ccccc2)C(=O)NCNC1=O: inactive
- Cn1cnc2c1c(=O)[nH]c(=O)n2C: inactive
- O=C1c2c(O)ccc(O)c2C(=O)c2c(NCCNCCO)ccc(NCCNCCO)c21: 10.4 µM (active)

For the next question, use this compound.
In: // lookup Potency for Fc1ccc([C@@H]2CCNC[C@H]2COc2ccc3c(c2)OCO3)cc1
Out: inactive

====

- ASSAY_PROTOCOL: qHTS Screen of the MIPE 4.0 Collection Against Ewings Sarcoma (EW8) (AID 1259255); also: nearly all actives have a fitted effect of over 35% in size; also: potency is read from the fitted curve at half-maximal effect
- TEST_PARAMETERS: EW8 Ewing sarcoma viability, CellTiter-Glo, 48 h; series mostly up to 45.8 µM
Records with an inconclusive call do not appear. Activity calls are given as the source filed them. The call rests on the fitted dose curve; in most records, active means well fitted inhibition curve with a large enough effect; inconclusive means small, poorly fitted or top-dose-only effect; inactive means no such curve, though single readings can be large or run the other way.
VALUE_TYPE: Potency

Example results:
• COc1cc2nc(N(C)CCCNC(=O)C3CCCO3)nc(N)c2cc1OC (stereo unspecified) = inactive
• COc1ccc2[nH]cc(CCNC(C)=O)c2c1 = 2.96 µM (active)
• COc1ccc(CCN(C)CCCC(C#N)(c2ccc(OC)c(OC)c2)C(C)C)cc1OC (stereo unspecified) = inactive
• CC(C)(C)C(=O)Oc1ccc(S(=O)(=O)Nc2ccccc2C(=O)NCC(=O)O)cc1 = inactive
• CCCNCC(O)COc1ccccc1C(=O)CCc1ccccc1 (stereo unspecified) = 20.9 µM (active)

In: I am curious: what Potency value has been reported for O=C(Nc1ccc([N+](=O)[O-])cc1Cl)c1cc(Cl)ccc1O ?
Out: 16.6 µM (active)

====

- ASSAY_PROTOCOL: qHTS Screen of the MIPE 4.0 Collection Against Ewings Sarcoma (EW8) (AID 1259255); also: nearly all actives have a fitted effect of over 35% in size; also: potency is read from the fitted curve at half-maximal effect
- TEST_PARAMETERS: EW8 Ewing sarcoma viability, CellTiter-Glo, 48 h; series mostly up to 45.8 µM
Inconclusive results are not listed. Active and inactive are the calls of the source. The call rests on the fitted dose curve; in most records, active means well fitted inhibition curve with a large enough effect; inconclusive means small, poorly fitted or top-dose-only effect; inactive means no such curve, though single readings can be large or run the other way.
VALUE_TYPE: Potency

Sample records with Potency:
* O=C1c2c(O)ccc(O)c2C(=O)c2c(NCCNCCO)ccc(NCCNCCO)c21 | 0.059 µM (active)
* CN(C)c1nc(N(C)C)nc(N(C)C)n1 | inactive
* CC1(C)O[C@H]2CC(=O)OC[C@]23[C@H]2CC[C@@]4(C)[C@H](c5ccoc5)OC(=O)[C@H]5O[C@]54[C@]2(C)C(=O)C[C@@H]13 | inactive
* COc1ccccc1N1CCN(CC(O)COc2cccc3ccccc23)CC1 (stereo unspecified) | inactive
* CN(C)C(=N)N=C(N)N | inactive

In: # get_value(readout='Potency', item= O=c1c(-c2ccc(O)cc2)coc2cc(O)cc(O)c12 )
Out: inactive

In: Also, Cc1cc(C(C)(C)C)cc(C)c1CC1=NCCN1 please.
Out: inactive

In: Same question, CC12CC3CC(C)(C1)CC(N)(C3)C2 this time
Out: inactive

In: What do we get for CCN1CCCC1CNC(=O)c1cc(S(=O)(=O)CC)c(N)cc1OC (stereo unspecified) ?
Out: 20.9 µM (active)

In: Item: CC(COc1ccccc1)N(CCCl)Cc1ccccc1 (stereo unspecified)
Out: inactive

In: One more compound: O=c1c(O)c(-c2ccc(O)c(O)c2)oc2cc(O)cc(O)c12
Out: 13.2 µM (active)

====

- ASSAY_PROTOCOL: qHTS of pediatric cancer cell lines to identify multiple opportunities for drug repurposing: Confirmatory screen for control Hh wild type fibroblast cells (AID 1347121); also: nearly all actives have a fitted effect of over 70% in size
- TEST_PARAMETERS: viability qHTS; series mostly up to 45.9 µM
Inconclusive results are not listed. Calls of active or inactive are those of the source. Calls come from the whole dose curve; as a rule, active = well fitted cell-killing curve with a large enough effect; inconclusive = small, poorly fitted or top-dose-only effect, or effect the other way; inactive = flat fitted curve, though single readings scatter.
Lab note: assign the record to one of Yes = active, No = inactive

* NC12CC3CC(CC(C3)C1)C2 | No
* Clc1ccc(C(c2ccccc2Cl)C(Cl)Cl)cc1 (stereo not drawn) | No
* CN(Cc1cnc2nc(N)nc(N)c2n1)c1ccc(C(=O)N[C@@H](CCC(=O)O)C(=O)O)cc1 | No
* CC#C[C@]1(O)CC[C@H]2[C@@H]3CCC4=CC(=O)CCC4=C3[C@@H](c3ccc(N(C)C)cc3)C[C@@]21C | No

In: Hi, do you know how NC(=O)NO came out in this test?
Out: No

In: What about this compound? O=C1c2c(O)ccc(O)c2C(=O)c2c(NCCNCCO)ccc(NCCNCCO)c21
Out: Yes

In: Likewise for CN(C)CCCN1c2ccccc2CCc2ccc(Cl)cc21 ?
Out: No

In: What about this compound? CC(CCc1ccc(O)cc1)NCCc1ccc(O)c(O)c1 (stereo not drawn)
Out: No
